# assayed target: DPP IV (Sus scrofa, UniProt P22411)
# Construct: purchased Sigma (Poole, Dorset, UK)
# Sequence (P22411 whole entry): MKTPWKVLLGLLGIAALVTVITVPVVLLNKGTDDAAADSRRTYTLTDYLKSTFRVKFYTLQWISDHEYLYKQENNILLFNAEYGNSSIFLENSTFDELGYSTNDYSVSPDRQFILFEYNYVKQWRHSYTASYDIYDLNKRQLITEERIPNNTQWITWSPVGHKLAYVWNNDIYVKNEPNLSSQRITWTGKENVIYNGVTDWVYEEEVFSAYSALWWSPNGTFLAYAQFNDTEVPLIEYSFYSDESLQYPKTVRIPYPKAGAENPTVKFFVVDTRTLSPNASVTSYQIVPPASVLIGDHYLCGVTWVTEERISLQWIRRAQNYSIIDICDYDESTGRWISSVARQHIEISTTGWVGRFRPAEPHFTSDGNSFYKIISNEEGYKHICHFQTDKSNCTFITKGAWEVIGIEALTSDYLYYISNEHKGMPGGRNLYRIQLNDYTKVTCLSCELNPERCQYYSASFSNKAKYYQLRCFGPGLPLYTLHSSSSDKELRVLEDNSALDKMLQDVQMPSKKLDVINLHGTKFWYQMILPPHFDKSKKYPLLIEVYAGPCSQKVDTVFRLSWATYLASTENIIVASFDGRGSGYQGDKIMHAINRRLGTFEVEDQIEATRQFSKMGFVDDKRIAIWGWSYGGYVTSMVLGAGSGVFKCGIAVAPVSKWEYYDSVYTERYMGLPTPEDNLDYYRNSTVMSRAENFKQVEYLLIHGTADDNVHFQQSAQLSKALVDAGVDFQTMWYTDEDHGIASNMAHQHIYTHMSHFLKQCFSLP
# assay comment: Degradation of GIP and analogues by DPP IV (HPLC)
# Format: in vitro ADME
# protocol conditions: isolated enzyme dpp iv, pH 7.8; incubation with DPP IV, 2 h; read-out: % Intact peptide remaining after time (h)
Starred links: 1 amine or outer side, 2 acyl side, 3 side chain; linkers in the order of their positions; H or OH if unused. Non-standard residues stand in square brackets, D forms with d. No end group written: not given here. X1 = O=C([C@H](Cc1ccc(O)cc1)N(C[C@H](O)[C@@H](O)[C@H](O)[C@H](O)CO)[*:1])[*:2]
measurement type: remaining at 2 h, 1 mmol/l (%)

substance	assayed target	measurement type	experimental value
[X1]AEGTFISDYSIAMDKIHQQDFVNWLLAQKGKKNDWKHNITQ [Glycated GIP]	DPP IV (Sus scrofa, UniProt P22411)	remaining at 2 h, 1 mmol/l	100
YSEGTFISDYSIAMDKIHQQDFVNWLLAQKGKKNDWKHNITQ-OH [GIP (Ser^2)]	DPP IV (Sus scrofa, UniProt P22411)	remaining at 2 h, 1 mmol/l	77

* * *

# assay comment: Degradation of GIP and analogues by human plasma (HPLC)
# Format: in vitro ADME
# protocol conditions: human, plasma, pH 7.8, 24 hours in the presence of DPA (diprotin A); read-out: % Intact peptide remaining after incubations with human plasma
# Description: Degradation of GIP and Tyr^1-glucitol GIP by human plasma. […] The reactions were terminated by addition of 5 μl of TFA and the final volume adjusted to 1.0 ml using 0.1% v/v TFA/water. […] HPLC analysis of degraded GIP and Tyr^1-glucitol GIP. […] The absorbance was monitored at 206 nm and peak areas evaluated using a model 2221 LKB integrator. […]
No end group written: not given here.
measurement type: remaining at 24 h, 20 µg/ml (%)

substance	experimental value
YSEGTFISDYSIAMDKIHQQDFVNWLLAQKGKKNDWKHNITQ-OH [GIP (Ser^2)]	63

* * *

# assay comment: Degradation of GIP and analogues by human plasma (HPLC)
# Type: in vitro ADME
# protocol conditions: human, plasma, pH 7.8, 24 h; read-out: % Intact peptide remaining after incubations with human plasma
Starred links: 1 amine or outer side, 2 acyl side, 3 side chain; linkers in the order of their positions; H or OH if unused. Non-standard residues stand in square brackets, D forms with d. No end group written: not given here. X1 = O=C([C@H](Cc1ccc(O)cc1)N(C[C@H](O)[C@@H](O)[C@H](O)[C@H](O)CO)[*:1])[*:2]

substance	remaining at 24 h, 20 µg/ml
YSEGTFISDYSIAMDKIHQQDFVNWLLAQKGKKNDWKHNITQ-OH [GIP (Ser^2)]	0%
[X1]AEGTFISDYSIAMDKIHQQDFVNWLLAQKGKKNDWKHNITQ [Glycated GIP]	100%

* * *

# assayed target: DPP IV (Sus scrofa)
# Construct: purchased Sigma (Poole, Dorset, UK)
# assay comment: Degradation of GIP and analogues by DPP IV (HPLC)
# Format: in vitro ADME
# protocol conditions: isolated enzyme dpp iv, pH 7.8; incubation with DPP IV, 4 h; read-out: % Intact peptide remaining after time (h)
Starred links: 1 amine or outer side, 2 acyl side, 3 side chain; linkers in the order of their positions; H or OH if unused. Non-standard residues stand in square brackets, D forms with d. No end group written: not given here. X1 = O=C([C@H](Cc1ccc(O)cc1)N(C[C@H](O)[C@@H](O)[C@H](O)[C@H](O)CO)[*:1])[*:2]
# remaining at 4 h, 1 mmol/l per record follows
measurement type: remaining at 4 h, 1 mmol/l (%)

substance	measurement type	experimental value
[X1]AEGTFISDYSIAMDKIHQQDFVNWLLAQKGKKNDWKHNITQ [Glycated GIP]	remaining at 4 h, 1 mmol/l	100
YSEGTFISDYSIAMDKIHQQDFVNWLLAQKGKKNDWKHNITQ-OH [GIP (Ser^2)]	remaining at 4 h, 1 mmol/l	60

// data source = patent US7875587B2
